Reference for the values: patent US20260242478A1

biological target: T1, Anti-CD28 scFv (VH - linker 1 - VL) (biotinylated (site not stated)); experiment: phage ELISA; biotinylated anti-CD28 scFv on neutravidin plate, clonal phage supernatant, anti-M13-HRP detection;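 also: before phage addition, wells were pretreated with soluble CD28 protein in blocking buffer, or with blocking buffer only as the comparison, then phage were added without washing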
T1 construct: Biotinylated scFv captured on neutravidin coated plates in the panning ELISA
T1 sequence (scFv, as listed by the source): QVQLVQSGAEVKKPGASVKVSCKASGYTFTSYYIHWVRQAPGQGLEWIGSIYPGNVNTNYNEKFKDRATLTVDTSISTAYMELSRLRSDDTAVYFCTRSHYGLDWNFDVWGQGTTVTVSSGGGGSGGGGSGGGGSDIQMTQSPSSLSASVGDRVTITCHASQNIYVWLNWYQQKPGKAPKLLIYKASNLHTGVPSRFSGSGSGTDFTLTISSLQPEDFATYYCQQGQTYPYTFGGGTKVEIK
parameter measured: CD28 scFv signal
Numbers only.

Example entries and their recorded answers appear below.
# binder, CD28 scFv signal
data = [
    ("MDWCPRHLWNECFN (tested as crude phage supernatant) [Phage-283]", 2.65),
    ("MDWCPRDLWFACFA (tested as crude phage supernatant) [Phage-282]", 2.66),
    ("MDWCPKSLWAECFN (tested as crude phage supernatant) [Phage-308]", 2.38),
]

Quick batch: CD28 scFv signal for everything below.
1. MDWCPRYLWHVCFY (tested as crude phage supernatant) [Phage-291]
2. MDWCPRSLWFLCFN (tested as crude phage supernatant) [Phage-281]
3. MERCPRYLWHMCYS (tested as crude phage supernatant) [Phage-286]
4. MDWCPRHLWFECFF (tested as crude phage supernatant) [Phage-300]
5. MDWCPRALWDHCFF (tested as crude phage supernatant) [Phage-292]

A.
[2.5, 2.71, 2.59, 2.45, 2.49]
